- Tested on: MCF7
- procedureText: Antiproliferative activity against human MCF7 cells after 72 hrs by MTS/PMS assay
- Assay type: functional, cell-based
- experimentalConditions: MCF7, 72 h
Assign labels as follows, please: met for IC50 below 2000 nM; not met for IC50 equal to or exceeding 2000 nM.

CC(=O)Oc1ccc(C(=O)Nc2cccc(-c3cccc(OC4CCN(C)CC4)c3)c2)cc1CC=C(C)C :: met
CC(C)=CCc1cc(C(=O)Nc2cccc(-c3cccc(OC4CCN(C)CC4)c3)c2)ccc1O :: met

Consider the compound `Cc1ccc(C(=O)Nc2ccc(-c3ccc(OC4CCN(C)CC4)cc3)cc2)cc1` . Is its IC50 strictly less than 2000 nM?
met

Hello, I'm reviewing records and need to know if IC50 of `CN1CCC(Oc2ccc(-c3ccc(NC(=O)c4cnc5ccccc5c4)cc3)cc2)CC1` is below 2000 nM. Could you check?
not met

Would you kindly verify if IC50 of `COc1cccc(-c2cc(C(=O)Nc3ccc(-c4ccc(OC5CCN(C)CC5)c(C)c4)cc3)ccc2OC)c1` is strictly less than 2000 nM?
met
